# Test system: OVCAR-4
# experimental_details: NCI tumour cell line growth inhibition, 48 h
Calls of active or inactive are those of the source. No stated cut-off is given here; in the data, active = GI50 up to about 1.1 µM and inactive = higher.
quantity_kind: GI50

>>> result("Cc1cc(Cl)ccc1NC(=O)/C(Cc1nc2ccc(C(=O)c3ccccc3)cc2nc1O)=N/NC(=O)c1ccncc1")
"> 100 µM (inactive)"
>>> result("CO[C@H]1O[C@@H]2CO[C@@H](c3ccccc3)O[C@H]2[C@@H]2C/C=C\\CCC[C@@]12O")
"32.8 µM (inactive)"
>>> result("O=C1CSC(c2c[nH]c3ccccc23)N1c1ccccc1[N+](=O)[O-] (stereo unspecified)")
"> 100 µM (inactive)"
>>> result("[O-][Cl+3]([O-])([O-])O.c1ccc(C2=NN2c2ccccc2)cc1")
"> 100 µM (inactive)"
>>> result("O=P(c1ccccc1)(c1ccccc1)C1CC=C(c2ccccc2)C2(CCCC2)C1 (stereo unspecified)")
"29.6 µM (inactive)"
>>> result("COc1cc2c(cc1OC)C1CN3CCCC3C(O)C1c1cc(OC)c(OC)cc1-2 (stereo unspecified)")
"> 100 µM (inactive)"
>>> result("Cc1ccccc1NC(=S)N/N=C1\\C(=O)Nc2ccccc21")
"> 100 µM (inactive)"
>>> result("O=C(O)c1ccc(C(=O)Nc2cccc3ccccc23)c(C(=O)O)c1")
"> 100 µM (inactive)"
>>> result("COc1ccc2cc(C(C)C(=O)N3C(=O)OCC3(C)C)ccc2c1 (stereo unspecified)")
"> 100 µM (inactive)"
>>> result("COC(=O)c1ccccc1C1CN=NC12Cc1c(C)cc(C)cc1C2=O (stereo unspecified)")
"> 100 µM (inactive)"
>>> result("NCCNCCCCCCNC(=O)c1cccc2cc3ccccc3nc12")
"2.02 µM (inactive)"
>>> result("O=C(Cn1cc(F)c(=O)[nH]c1=O)C12CC3CC(CC(C3)C1)C2")
"> 100 µM (inactive)"
>>> result("COc1cc(/C=C2\\CCC(C)C3=C(c4cc(OC)c(OC)c(OC)c4)C(C#N)=C(N)OC32)cc(OC)c1OC (stereo unspecified)")
"2.97 µM (inactive)"
>>> result("CNC(=O)OCc1nccc2c(C)c3[nH]c4ccc(OC)cc4c3cc12")
"8.11 µM (inactive)"
>>> result("CC1(CO)C(O)CCC2(C)C1CCC1CC3CC12CCC3(O)CO (stereo unspecified)")
"> 100 µM (inactive)"
>>> result("COC(=O)[C@@H](N1C(=O)c2ccccc2C1=O)C1(C)CC(Cl)=NO1 (stereo partly specified)")
"> 100 µM (inactive)"
>>> result("CCOC(=O)[C@H](O)[C@@H](O)C(=O)NCc1ccc(C(=O)c2ccccc2)cc1")
"> 100 µM (inactive)"
>>> result("O=C(NN1C(=O)CSC1c1ccc(Cl)c(Cl)c1)c1ccncc1 (stereo unspecified)")
"54.1 µM (inactive)"
>>> result("COC1=CC(=O)c2c(c(-c3nc(C)cs3)cn2C)C1=O")
"18.5 µM (inactive)"
>>> result("COc1ccc2c(c1)C(N)=C(c1ccccc1)C2=O")
"> 100 µM (inactive)"
>>> result("COc1ccc(S(=O)(=O)c2ccccc2[N+](=O)[O-])cc1")
"> 100 µM (inactive)"

----------
# System: CAKI-1
# experimental_details: NCI tumour cell line growth inhibition, 48 h
The source made the active and inactive calls. No stated cut-off is given here; in the data, active = GI50 up to about 1.1 µM and inactive = higher.
Outcome codes: label 1 (active), label 0 (inactive)

>>> class_name("COc1cc(OC)c(CSCC(NC(=O)OCC2c3ccccc3-c3ccccc32)C(=O)O)c(OC)c1 (centres undefined)")
"label 0"
>>> class_name("CC[C@H]1C=CCC[C@@]2(C[C@@H]3CC[C@@H]4[C@H](C(=O)OCCCCCCCCCCCCCCCC(=O)O)[C@]5(CCC[C@@H](C)O5)NC(=[N+]34)N2)O1")
"label 1"
>>> class_name("CC[C@]1(Cc2ccc(OC)c(OC)c2)C=[N+]([O-])O[C@H](OCc2ccccc2)[C@@H]1OC(C)=O")
"label 0"
>>> class_name("CC(=O)CCC1(C(=O)OCC(C)C)CCCC1=O (centres undefined)")
"label 0"
>>> class_name("Oc1ccc(O)c(CNc2ccccc2)c1")
"label 0"
>>> class_name("Cc1ccc(/C=C/C(=O)c2ccc([N+](=O)[O-])cc2)cc1")
"label 0"
>>> class_name("COc1cc(/C=C/c2ccccn2)cc(OC)c1OC")
"label 0"
>>> class_name("CCCCN1C=CN2c3nc4cc(C)c(C)cc4n3C(C(=O)OC)=C(C(=O)OC)C12 (centres undefined)")
"label 0"
>>> class_name("CCOC(=O)C1=C(C)NC(=S)NC1c1ccccc1 (centres undefined)")
"label 0"
